B1: CPEB3 Ribozyme (parent)
chain: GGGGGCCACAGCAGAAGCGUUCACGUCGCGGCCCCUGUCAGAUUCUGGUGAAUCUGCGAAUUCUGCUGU

# Variants of: B1
# test.name: self-cleavage, relative activity (ratio to wild type); higher = more cleavage; co-transcriptional

variant.code: C32U U67A
self-cleavage: 0.987
--
variant.code: G3U A13C
self-cleavage: 0.0166
--
variant.code: G25C C32A
self-cleavage: 0.147
--
variant.code: G19A A60C
self-cleavage: 0.0899
--
variant.code: A40G A59G
self-cleavage: 0.935
--
variant.code: U21A C22G
self-cleavage: 0.0886
--
variant.code: A13C C66G
self-cleavage: 0.862
--
variant.code: U43G C54A
self-cleavage: 0.432
--
variant.code: G17A U64C
self-cleavage: 0.242
--
variant.code: G31U C66U
self-cleavage: 0.732
--
variant.code: G30U U43G
self-cleavage: 0.281
--
variant.code: A10U U62G
self-cleavage: 0.896
--
variant.code: G19A U46G
self-cleavage: 0.151
--
variant.code: G37A C57U
self-cleavage: 0.247
--
variant.code: U38A U61C
self-cleavage: 0.507
--
variant.code: G1U G41U
self-cleavage: 0.116
--
variant.code: G41U G50C
self-cleavage: 0.54
--
variant.code: U49A G56A
self-cleavage: 1
--
variant.code: A15U U43G
self-cleavage: 0.429
--
variant.code: C24G A59C
self-cleavage: 0.141
--
variant.code: G4A A10G
self-cleavage: 0.868
--
variant.code: C45G G65A
self-cleavage: 0.87
